B1: SMG5 (parent)
chain: QEKLQVLMAEGLLPAVKVFLDWLR

Variants of: B1
Assay: protein stability index of a GFP-peptide fusion (GPS, HEK-293T) (PSI 1-6); higher = more stable;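 further: lentivirally expressed fusions sorted by FACS into six bins by GFP to DsRed ratio, PSI derived from sequencing read proportions per bin multiplied by bin number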
Details: c terminus: a fixed tail appended
Reported Property: protein stability index
Reply with just the number.

Data request, read-out protein stability index, for Q1R
1.57

Returns the measured protein stability index for the input variant. Input: A15L
1.63

Look up protein stability index: K3G
1.91

Recorded protein stability index of D21Y , please.
3.03

Would you kindly share the measured protein stability index for V18W ?
1.64

# get_value(readout='protein stability index', item= L23M )
4.59

For the variant shown here, P14S , give the reported protein stability index.
2.32

// protein stability index lookup, key: E2L
1.44

Which protein stability index value is on record for F19I ?
2.39

Would you mind telling me what protein stability index value was observed for D21A ?
2.05

Looking for the measured protein stability index of L4Y , can you help?
4.02

Query: protein stability index; subject: V18L
1.99

What measured protein stability index goes with K3V ?
2.02

Query (variant): F19E ; field requested: protein stability index
1.53

Consider the variant E10W and give its measured protein stability index.
1.65

Fill blank: measured protein stability index of the variant L12G is ____.
1.79

Would you kindly share the measured protein stability index for A15V ?
1.88

For Q5S , what is its reported protein stability index?
2.8

So what does the record say about protein stability index for A9F ?
1.78

Item L12N has what recorded protein stability index?
1.82

For the variant shown here, V16L , give the reported protein stability index.
1.39

Query (variant): L4F ; field requested: protein stability index
2.71

Item under review: V18D . Reported protein stability index?
2.44

What does the record list as protein stability index for V16M ?
1.85

Entry under review: A15W . Reported protein stability index?
1.88

# lookup: protein stability index of M8L
2.48

Look up protein stability index: A9I
1.82

What value of measured protein stability index is listed for L12H ?
1.25

Look up protein stability index for this variant: L7F
1.8

Field request: protein stability index | item: F19S
2.73

Query: protein stability index; subject: L23G
2.66

// protein stability index lookup, key: Q5T
1.47

Look at this variant and give its reported protein stability index. L13E
1.09

Name the recorded protein stability index for R24I .
1.93

# get_value(readout='protein stability index', item= L13R )
1.37

Quick one: protein stability index for V18R ?
3.86

For the variant shown here, E10Q , give the reported protein stability index.
2.35

Would you mind telling me what protein stability index value was observed for K17D ?
1.27

What protein stability index value was documented for this variant, V18T ?
3.25

// protein stability index lookup, key: K17R
2.07

Would you kindly share the measured protein stability index for V16N ?
1.75

Reported protein stability index for L12K : what is it?
2.34

// query protein stability index value for entry W22T
1.91

State the recorded protein stability index for this entry: G11S
1.99

I'd like to know its protein stability index. The variant in question is F19K
2.35

Look up protein stability index: V16F
2.56
